Known EC50 of a selection of binders
Target: T1, human LIGHT (TNFSF14), full length, membrane-bound (214E allele) (human, UniProt O43557 1-240)
T1 construct: also called membrane LIGHT; human membrane LIGHT
T1 sequence (O43557 whole entry K214E): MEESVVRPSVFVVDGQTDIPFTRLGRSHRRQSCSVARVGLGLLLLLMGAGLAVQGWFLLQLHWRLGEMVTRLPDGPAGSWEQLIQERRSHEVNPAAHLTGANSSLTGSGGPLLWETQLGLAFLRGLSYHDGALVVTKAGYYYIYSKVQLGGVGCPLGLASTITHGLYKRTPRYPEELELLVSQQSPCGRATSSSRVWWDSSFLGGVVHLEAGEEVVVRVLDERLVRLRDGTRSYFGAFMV
Experiment: flow cytometry, EL4-LIGHT cells
Give the value, in units of nM, as a plain number.

3B04 (antibody, human IgG4, V domains shown, chimeric: mouse variable domains on human IgG4 HC (S-to-P and L-to-E at 248) and human CL; also called Parental 3B04; 3B04 chimeric) VH: QVQLQQPGAELVRPGASVTLSCKASGYTFTDYEMHWVKQTPVHGLEWIGEIDPETGDTAYSQKFKGKATLTADKSSSTAYMEFRSLTSEDSAVYYCSRETDYFFDYWGQGTTLTVSS VL: DIQMTQTPASLSASVGETVTITCGASENIYGALNWYQRKQGKSPQLLIYGATNLADGMSSRFSGSGSGRQYSLKISSLHPDDFATYYCQNVLTTPWTFGGGTKLEIKR : 0.15
2E08 (antibody, human IgG4, V domains shown, chimeric human IgG4 (S-to-P, L-to-E at 248), human CL; also called Parental 2E08) VH: QVQMKESGAELVRPGVSVKISCKGSGYTFTDYAIHWVKQSHAKTLEWIGVISTYYGDASYNQKFKGKATMTVDKSSSTAYMELARLTSDDSAIYYCARSRGEYGNYDAMDYWGQGTSVTVSS VL: DIVLTQSPASLAVSLGQRATISCKASQSVDYDGDSYMNWYQQKPGQPPKLLIYAASNLESGIPARFSGSGSGTDFTLNIHPVEEEDAATYYCQQSNEDPLTFGAGTKLELK : 1.8
3A07 (antibody, human IgG4, V domains shown, chimeric human IgG4 (S-to-P, L-to-E at 248), human CL; also called Parental 3A07) VH: QVQLQQSGAELVRPGAPVTLSCKASDYTFTDSEIHWVKQTPVHGLEWIGEIDPETGGTAYNQKFKGKATLTADKSSSTAYMELRSLTSEDSAVYYCSRETDYFFDYWGQGTTLTVSS VL: ENVLTQSPAIMSASPGEKVTMTCSASSSVSYMYWYQQRPGSSPRLLIYDTSNLASGVPVRFSGSGSGTSYSLTISRMEAEDAATYYCQQWSSYPLTFGSGTKLEIK : 0.14

In: Which EC50 value is on record for 3C10 (antibody, human IgG4, V domains shown, chimeric human IgG4 (S-to-P, L-to-E at 248), human CL; also called Parental 3C10) VH: EVQLQQSGAELVRPGASVTLSCKASDYTFTDSEIHWVKQTPVHGLEWIGEIDPETGGTAYNQKFKGKATLTADKSSSTAYMELRSLTSEDSAVYYCSRETDYFFDYWGQGTTLTVSS VL: DVVMTQTPAIMSASPGEKVTMTCSASSSVSYMYWYQQKPGSSPRLLIYDTSNLASGVPVRFSGSGSGTSYSLTISRMEAEDAATYYCQQWSSYPLTFGAGTKLELK ?
Out: 0.16
